meta.source: the supplement of paper PMC9170038

test system: K4 kissing-loop RNA reporter; assay: apparent KD of K4 kissing-loop reporter; higher = weaker reporter binding; details: Eterna round: R107; input ligand: arginine 13.2 mM;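 further: bound reporter read as fluorescence of individual clusters on recovered sequencing chips by microscopy, with normalized cluster intensities fitted with a binding model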
Measure: apparent KD of K4 kissing-loop reporter (nM)
Numbers only, in nM.

Use these answered entries as a reference point.
1. CUAUAAGUGCCGAGUGAUGUUCGGCCAAUACGAGGACCGGUACGGCCGCCACUCGGUCAGUCGGUGCCCACCGGGCAUGGCUGAC [Ortima]: 237
2. GGACCUCAGUGAUGUUGAGGUAACACUGAUACCAGCGACUUAAUUCGCCCUUGGCAGCAGUCCACCGAGGUAUCUGAUUAGGUCU [#23 K4 Theophylline A Exclusion]: 220

Go through the items and report each one's apparent KD of K4 kissing-loop reporter.
1. ACGUCCGGGUUAAUCGUGGGCGUGGUGGAUACCAGUUCUUUAAUGAACCCUUGGCAGCCACAUGAGUGAUGUUCAUGUGCGAUGA [KL-XTheo-A10 #analogue]
2. GAACAUAGUAAAGGAUAUUCCUGCCUCGCGCGAUUGAUUAGUGAUGUUGACGAUAUCGCUUUGAGGGAAGAAGGUUAACAAGUCA [theeternabot_exclusion_KL_FMN_B_4]
3. AGGCACGAGCAAGGAUAUCGAGUGGAGUGAUGUUCUGCCGACCCAGGACCGCAAGGUCCUGGGUCGCGAGAAGGUGCUCGUGCCU [#2 Same State - FMN A Attempt #5 (HarryS)]

[102, 659, 642]

---

tested on: MS2 coat protein; assay: apparent KD of MS2 coat protein, switch OFF state (with FMN for OFF switches, without FMN for ON switches); designed switch direction (-1 OFF switch, 1 ON switch): -1; higher = weaker reporter binding; conditions: FMN input: 0 or 200 uM; Eterna round: R93 (includes R88 designs)
Kindly supply the reported apparent KD of MS2 coat protein values for the records listed here.
Answers are plain numbers, in nM.

These recorded examples may help you get a feel for the data.
1. AACUGACAUGAGGAUCACCCAUGUCAGGAUAUGACUUCGAAAAAUAAAAUAAACGAUGUCAGAAGGGACAUGGA [Design 67: Sub-opt NB]: 41.1
2. AAAAAAAGAGGAUAUACGUACAUGUCAAAAGACGUGAAGGGACAUGAGGAUCACCCAUGUAGAAGGUUUAAAAA [JL Wide Open 30]: 16.3
3. AGUGAGUGAGGAUAUCCCUGAAGAAUAAAAGAAAUAACGAGGGAGAAGGCACAUGAGGAUCACCCAUGUACACA [May 64]: 24.8
4. AAGAAGUCAGGAUAUCCAAAAGAAAAGAAAAGAAAAGAAAAGGAGAAGGGACAUGAGGAUCACCCAUGUAAGAA [Khnemibre Ahmose II]: 20.9

Items follow; give apparent KD of MS2 coat protein for each.
1. CAGUACUGAGGAUAUACAUGAGGAUCACCCAUGUGUAAAAGCUAGGAAACUAGCACAUGUAGAAGGCAGUACUG [Ex3: 815]
2. AGCAAGUUAGGAUAUGCGAAGUCAGGACACACACUGACAAAGCAGAAGGAACAUGAGGAUCACCCAUGUAAGCA [Mat - Exaclusion 4 - Eli mod - D64]

[230, 20.8]

Please indicate recorded apparent KD of MS2 coat protein of GGUUGAGAAGGAUAUACAUGAGGAUCACCCAUGUGAGAGAAAAAAGUGAGAAAGAAAAGUAGAAGGUCUUGACG [salish99-ex3-63] measured with MS2 coat protein.
95.9
